Form field: melting point (one value per entry).

compound="NNC(=O)CSc1nc2ccccc2c(=O)n1NC(=O)Cc1ccccc1 [13b]" measurement_name="melting point" endpoint_value="210 to 215 °C"
compound="O=C(CSc1nc2ccccc2c(=O)n1NC(=O)Cc1ccccc1)NNC(=O)c1ccccc1 [14c]" measurement_name="melting point" endpoint_value="235 to 240 °C"
compound="CC(C)Cc1ccc(C(C)C(=O)NN2C(=O)c3ccccc3N(C)C2c2ccc(F)cc2)cc1 (centres unmarked)" measurement_name="melting point" endpoint_value="90 to 95 °C"

Exercise: For the compound O=C(CSc1nc2ccccc2c(=O)n1NC(=O)Cc1ccccc1)NNC(=O)c1ccc(Cl)cc1 [14d] , what melting point is on record?
Solution: 221 to 226 °C

Exercise: For the compound CC(C)Cc1ccc(C(C)C(=O)NN2C(=O)c3ccccc3N(C)C2c2ccc([N+](=O)[O-])cc2)cc1 (centres unmarked) , what melting point is on record?
Solution: 111 to 116 °C

Exercise: For the compound CC(C)Cc1ccc(C(C)C(=O)NN2C(=O)c3ccccc3N(C)C2c2ccc(Cl)cc2)cc1 (centres unmarked) , what melting point is on record?
Solution: 120 to 125 °C

Exercise: For the compound COc1ccc(C2N(NC(=O)Cc3c[nH]c4ccccc34)C(=O)c3ccccc3N2C)cc1 (centres unmarked) , what melting point is on record?
Solution: 83 to 85 °C

Exercise: For the compound CN1c2ccccc2C(=O)N(NC(=O)Cc2c[nH]c3ccccc23)C1c1ccc([N+](=O)[O-])cc1 (centres unmarked) , what melting point is on record?
Solution: 239 to 243 °C

* * *

system: stomach ulceration in rats; assay: Gastric acute ulcerogenic activity; details: rat, n = 5; as to Average Ulcer number: test concentration or dose not given here
Form field: Average Ulcer number (one value per entry).
Reply with the value as a number alone.

Below, 3 compounds whose answers are already recorded.
compound="O=C(CSc1nc2ccccc2c(=O)n1NC(=O)Cc1ccccc1)NNC(=O)c1ccccc1 [14c]" endpoint_value=0.8
compound="CN1c2ccccc2C(=O)N(NC(=O)Cc2c[nH]c3ccccc23)C1c1ccc([N+](=O)[O-])cc1 (centres unmarked) [4b]" endpoint_value=0.8
compound="CN1c2ccccc2C(=O)N(NC(=O)Cc2c[nH]c3ccccc23)C1c1ccc(Cl)cc1 (centres unmarked) [4a]" endpoint_value=1.6

Exercise: For the compound NNC(=O)CSc1nc2ccccc2c(=O)n1NC(=O)Cc1ccccc1 [13b] , what Average Ulcer number is on record?
Solution: 0.4

Exercise: For the compound CC(C)Cc1ccc(C(C)C(=O)NN2C(=O)c3ccccc3N(C)C2c2ccc([N+](=O)[O-])cc2)cc1 (centres unmarked) [7c] , what Average Ulcer number is on record?
Solution: 1

* * *

Form field: Ulcer Index (UI) (one value per entry).
tested on: stomach ulceration in rats; assay: Gastric acute ulcerogenic activity; conditions: rat, n = 5; UI = UN + US + UP×10^−1
Reply with the value as a number alone.

Below, 3 compounds whose answers are already recorded.
compound="NNC(=O)CSc1nc2ccccc2c(=O)n1NC(=O)Cc1ccccc1 [13b]" target="stomach ulceration in rats" measurement_name="Ulcer Index (UI)" endpoint_value=4.8
compound="O=C(CSc1nc2ccccc2c(=O)n1NC(=O)Cc1ccccc1)NNC(=O)c1ccccc1 [14c]" target="stomach ulceration in rats" measurement_name="Ulcer Index (UI)" endpoint_value=5.3
compound="CN1c2ccccc2C(=O)N(NC(=O)Cc2c[nH]c3ccccc23)C1c1ccc([N+](=O)[O-])cc1 (stereo not shown)" target="stomach ulceration in rats" measurement_name="Ulcer Index (UI)" endpoint_value=3

Continue with the next compound.
Exercise: For the compound CC(C)Cc1ccc(C(C)C(=O)NN2C(=O)c3ccccc3N(C)C2c2ccc([N+](=O)[O-])cc2)cc1 (stereo not shown) , what Ulcer Index (UI) is on record?
Solution: 8
